The measurements presented in this section are drawn from patent US20240166765A1.

Assay System: Relipidated TF (Tissue Factor) (UniProt P13726 33-295, limits assumed)
Experiment Description: cell-based or functional assay
Measure Name: ttPeak [min], Ab 100 nM (min)
// return numeric value only (unit: min, not printed)

TF-011 (antibody, V domains shown) VH: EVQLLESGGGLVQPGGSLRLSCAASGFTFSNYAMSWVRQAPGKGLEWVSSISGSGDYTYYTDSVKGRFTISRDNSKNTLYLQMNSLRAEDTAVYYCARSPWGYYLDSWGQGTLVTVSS VL: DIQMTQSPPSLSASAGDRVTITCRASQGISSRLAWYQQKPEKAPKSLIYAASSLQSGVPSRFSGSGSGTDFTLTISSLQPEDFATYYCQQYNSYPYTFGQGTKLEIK = 35.8
25A (antibody, human IgG1, V domains shown) VH: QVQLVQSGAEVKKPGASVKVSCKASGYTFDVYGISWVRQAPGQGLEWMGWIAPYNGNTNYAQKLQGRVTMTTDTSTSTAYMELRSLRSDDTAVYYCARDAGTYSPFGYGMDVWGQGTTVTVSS VL: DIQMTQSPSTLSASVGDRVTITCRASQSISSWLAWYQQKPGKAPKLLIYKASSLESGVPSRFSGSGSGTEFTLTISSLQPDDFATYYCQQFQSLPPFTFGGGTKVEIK = 8.6

Respond only with ttPeak [min], Ab 100 nM recorded for 39A (antibody, human IgG1, V domains shown) VH: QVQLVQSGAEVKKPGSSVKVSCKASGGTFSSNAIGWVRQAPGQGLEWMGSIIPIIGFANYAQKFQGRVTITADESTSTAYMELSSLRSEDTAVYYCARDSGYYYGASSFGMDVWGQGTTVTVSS VL: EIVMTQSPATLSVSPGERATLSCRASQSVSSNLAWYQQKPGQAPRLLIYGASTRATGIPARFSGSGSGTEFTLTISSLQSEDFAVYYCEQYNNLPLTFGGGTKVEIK 44.6
